- EXPERIMENTAL_SYSTEM: T1, Human CD47-C33G (human, UniProt Q08722 19-135)
- T1 construct: also called CD47 mutein with C33G mutation
- T1 sequence (Q08722 19-135 C33G limits assumed): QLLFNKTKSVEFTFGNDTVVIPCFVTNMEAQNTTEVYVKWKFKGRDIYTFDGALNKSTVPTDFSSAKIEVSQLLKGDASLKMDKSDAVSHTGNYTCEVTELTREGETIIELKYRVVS
- METHOD_DESCRIPTION: SPR, IgG captured, CD47 in flow; exp 1;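 further: biacore T200 SPR using IgG from supernatants of transfected HEK293 cells, rate constants fitted to association and dissociation curves, Kd derived from koff over kon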
Would you please tag the item fulfilled when its kon is 300000 M⁻¹ s⁻¹ or above, and not fulfilled when it is below?

# BINDER, LABEL_CLASS
rows = [
    ("108VH5.M5 / 108VL1.M5 (antibody, human IgG4 S228P, kappa, V domains shown, Full-length IgG4 (S228P), kappa; also called VH5.M5 VL1.M5) VH: EVQLVQSGAEVKKPGASVKVSCKASGYTFTHHWIHWVRQAPGQGLEWMGMIDASDSETRLSQKFKDRVTMTRDTSTSTVYMELSSLRSEDTAVYYCARLGRYYFDYWGQGTLVTVSS VL: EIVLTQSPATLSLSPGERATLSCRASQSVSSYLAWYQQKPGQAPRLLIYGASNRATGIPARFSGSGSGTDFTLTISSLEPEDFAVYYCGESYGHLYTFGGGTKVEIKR", "fulfilled"),
    ("108VH5.M6 / 108VL1.M5 (antibody, human IgG4 S228P, kappa, V domains shown, Full-length IgG4 (S228P), kappa; also called VH5.M6 VL1.M5) VH: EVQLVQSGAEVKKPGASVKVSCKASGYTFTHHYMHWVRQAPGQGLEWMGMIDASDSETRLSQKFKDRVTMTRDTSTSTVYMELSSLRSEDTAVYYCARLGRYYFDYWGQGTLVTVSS VL: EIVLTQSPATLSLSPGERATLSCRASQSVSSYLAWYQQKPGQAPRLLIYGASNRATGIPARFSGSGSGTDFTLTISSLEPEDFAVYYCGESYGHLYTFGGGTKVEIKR", "not fulfilled"),
    ("108VH4.M4-VL1.M1 (antibody, V domains shown, also called original humanized 108C10A6 antibody) VH: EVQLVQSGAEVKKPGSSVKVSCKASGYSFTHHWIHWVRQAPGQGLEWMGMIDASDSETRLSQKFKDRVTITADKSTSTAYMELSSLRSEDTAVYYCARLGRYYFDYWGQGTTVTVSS VL: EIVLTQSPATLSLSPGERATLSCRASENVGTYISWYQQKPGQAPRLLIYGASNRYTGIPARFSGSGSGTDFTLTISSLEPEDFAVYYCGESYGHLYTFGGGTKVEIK", "fulfilled"),
    ("chimeric antibody 108C10A6 (antibody, V domains shown, Chimeric antibody with mouse variable domains; captured through human Fc; also called VH / VL) VH: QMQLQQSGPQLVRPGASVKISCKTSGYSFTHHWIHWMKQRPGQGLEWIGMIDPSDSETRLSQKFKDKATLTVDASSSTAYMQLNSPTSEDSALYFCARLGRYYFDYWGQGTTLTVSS VL: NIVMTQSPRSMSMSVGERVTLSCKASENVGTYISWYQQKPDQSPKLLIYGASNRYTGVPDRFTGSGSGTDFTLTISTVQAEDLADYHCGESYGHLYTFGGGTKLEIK", "fulfilled"),
    ("108VH5 / 108VL1.M5 (antibody, human IgG4 S228P, kappa, V domains shown, Full-length IgG4 (S228P), kappa; also called VH5 VL1.M5) VH: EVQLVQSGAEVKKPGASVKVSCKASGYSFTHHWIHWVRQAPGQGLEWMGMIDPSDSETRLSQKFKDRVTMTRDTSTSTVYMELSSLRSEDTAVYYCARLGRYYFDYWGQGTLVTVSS VL: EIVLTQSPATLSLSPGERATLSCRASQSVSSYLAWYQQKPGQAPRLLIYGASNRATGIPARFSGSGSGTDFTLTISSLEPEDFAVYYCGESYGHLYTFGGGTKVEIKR", "fulfilled"),
]

// switching to the query binder
Say whether 108VH5.M9 / 108VL1.M5 (antibody, human IgG4 S228P, kappa, V domains shown, Full-length IgG4 (S228P), kappa; also called VH5.M9 VL1.M5) VH: EVQLVQSGAEVKKPGASVKVSCKASGYSFTHHWIHWVRQAPGQGLEWMGMIDASDSETRLSQKFQGRVTMTRDTSTSTVYMELSSLRSEDTAVYYCARLGRYYFDYWGQGTLVTVSS VL: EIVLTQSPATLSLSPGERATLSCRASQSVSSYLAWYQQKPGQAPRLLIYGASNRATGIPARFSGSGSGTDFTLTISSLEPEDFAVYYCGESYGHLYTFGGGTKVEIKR shows kon of 300000 M⁻¹ s⁻¹ or more. fulfilled

Where do these numbers come from? They come from patent US20260132197A1.
